System Under Test: CYP11A1 (Mus musculus, UniProt Q9QZ82)
Measurement Description: pregnenolone ELISA in murine Th2 cells (endogenous Cyp11a1), dose response
Assay type: cell-based
Endpoint Name: pIC50
Reminder that pIC50 is minus the log10 of a molar concentration.

Data request: Form field: reported pIC50 of `CC[C@@H]([C@H](C)O)n1ncn(-c2ccc(N3CCN(c4ccc(OC[C@@H]5CO[C@@](Cn6cncn6)(c6ccc(F)cc6F)C5)cc4)CC3)cc2)c1=O`
Data returned: 6.66

====

System Under Test: UniProtKB Q9QZ82
Sequence (Q9QZ82 37-526): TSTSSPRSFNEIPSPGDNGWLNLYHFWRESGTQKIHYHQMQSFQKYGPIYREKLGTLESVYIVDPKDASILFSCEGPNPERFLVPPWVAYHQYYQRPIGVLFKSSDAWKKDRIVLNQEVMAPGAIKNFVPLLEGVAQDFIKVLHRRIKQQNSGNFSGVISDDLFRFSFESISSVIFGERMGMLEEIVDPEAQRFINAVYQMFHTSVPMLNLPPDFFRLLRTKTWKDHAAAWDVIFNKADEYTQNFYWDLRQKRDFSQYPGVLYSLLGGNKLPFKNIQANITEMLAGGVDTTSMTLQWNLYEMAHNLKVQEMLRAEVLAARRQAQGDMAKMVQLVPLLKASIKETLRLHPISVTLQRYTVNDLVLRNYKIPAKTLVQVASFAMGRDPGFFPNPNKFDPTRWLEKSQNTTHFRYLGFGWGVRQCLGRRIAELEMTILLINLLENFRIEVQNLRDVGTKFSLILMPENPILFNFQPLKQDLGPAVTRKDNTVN
Measurement Description: pregnenolone ELISA in murine Th2 cells (endogenous Cyp11a1), reference inhibitor, […] h dose response
Type: cell-based
Endpoint Name: IC50 (nM)
Report the figure in nM without appending any unit label.

Data request: Entry under review: CCC1(c2ccc(N)cc2)CCC(=O)NC1=O (stereo not shown) [aminoglutethimide] . Reported IC50?
Data returned: 1080
